protocol.text: Selectivity index, ratio of IC50 for African green monkey Vero cells to IC50 for Trypanosoma cruzi MHOM/Pe/2011/Arequipa DTU 5 epimastigotes
Format: toxicity
details: read-out: Ratio IC50
Classify by measured selectivity ratio: true if it is equal to or exceeds 10, false if it is smaller.

Some solved entries appear below for comparison.
CN(C)CCCN(C)c1c(NCCCN(C)CCCNc2c(N(C)CCCN(C)C)c(=O)c2=O)c(=O)c1=O ... true
CN(C)CCCN(C)c1c(N)c(=O)c1=O ... true
CCCCCCNc1c(N(C)CCCN(C)C)c(=O)c1=O ... true
CCCCCCCCCCCC[N+](C)(C)CCCN(C)c1c(OCC)c(=O)c1=O ... false
CCCCCCCCCCCCCCCCNc1c(N(C)CCCN(C)C)c(=O)c1=O ... true
CCCCCCCCCCCC[N+](C)(C)CCCN(C)c1c(O)c(=O)c1=O ... false
CCCCNc1c(N(C)CCCN(C)C)c(=O)c1=O ... true
CCCCCCCCCCCCOc1c(N(C)CCCN(C)C)c(=O)c1=O ... false

Q. Does selectivity ratio meet or surpass 10 for "CCCCCCCCCCCCCCCCOP(=O)([O-])OCC[N+](C)(C)C" ?
A. false

Q. Okay, and "CCCCCCCCNc1c(N(C)CCCN(C)C)c(=O)c1=O" ?
A. true

Q. Item: "CCNc1c(N(C)CCCN(C)C)c(=O)c1=O"
A. true

Q. Next compound up: "CN(C)CCCN(C)c1c(N(C)CCCN(C)C)c(=O)c1=O"
A. true

Q. Query "CCCCCCCCCCCCNc1c(N(C)CCCN(C)C)c(=O)c1=O" next
A. false

----------
protocol.text: Hepatotoxicity in Balb/c mouse infected with Trypanosoma cruzi MHOM/Pe/2011/Arequipa DTU 5 trypomastigotes assessed as increase in alkaline phosphatase level at 20 mg/kg, po once daily for 5 consecutive days starting from day 75 post infection measured on day 127 post infection relative to control
Type: toxicity, organism-based
details: in vivo
metric.name: Activity

Q. Look at this molecule and give its reported Activity. O=C(Cn1ccnc1[N+](=O)[O-])NCc1ccccc1 [BENZNIDAZOLE]
A. 20 to 30 U/L

----------
protocol.text: Cardiotoxicity in Balb/c mouse infected with Trypanosoma cruzi MHOM/Pe/2011/Arequipa DTU 5 trypomastigotes assessed as decrease in serum LDH level at 20 mg/kg, po once daily for 5 consecutive days starting from day 75 post infection measured on day 127 post infection relative to control
Assay type: toxicity, organism-based
details: in vivo
metric.name: Activity

Q. Fill blank: measured Activity of the compound "O=C(Cn1ccnc1[N+](=O)[O-])NCc1ccccc1" is ____.
A. 10 to 20 U/L

----------
protocol.text: Hepatotoxicity in Balb/c mouse infected with Trypanosoma cruzi MHOM/Pe/2011/Arequipa DTU 5 trypomastigotes assessed as increase in ratio of serum AST to GOT level at 20 mg/kg, po once daily for 5 consecutive days starting from day 75 post infection measured on day 127 post infection relative to control
Format: toxicity, organism-based
details: in vivo
metric.name: Activity

Q. Please look up its Activity: O=C(Cn1ccnc1[N+](=O)[O-])NCc1ccccc1 [BENZNIDAZOLE]
A. 10 to 20 U/L

----------
Tested on: Trypanosoma cruzi
protocol.text: Trypanocidal activity against Trypanosoma cruzi TINF/CH/1956/Tulahuen DTU 6 trypomastigotes derived from infected Balb/c mouse after 72 hrs by resazurin dye based assay
Format: functional, organism-based
details: TINF/CH/1956/Tulahuen DTU 6, 72 h
pIC50: −log10 of the molar value.
Mark False for pIC50 values under 5, and True for everything at or above.

CCCCCCCCCCCCOc1c(N(C)CCCN(C)C)c(=O)c1=O ... False

Q. Determine whether measured pIC50 meets or exceeds 5 for "CCCCCCNc1c(N(C)CCCN(C)C)c(=O)c1=O"
A. False

Q. One more molecule: "CN(C)CCCN(C)c1c(N)c(=O)c1=O"
A. False

Q. How about CCCCCCCCCCCCCCCCOP(=O)([O-])OCC[N+](C)(C)C [MILTEFOSINE] ?
A. False

Q. Field entry: "CCNc1c(N(C)CCCN(C)C)c(=O)c1=O"
A. False

Q. Another molecule to check: "CCCCCCCCCCCCCCCCNc1c(N(C)CCCN(C)C)c(=O)c1=O"
A. True
